Items are presented alongside their recorded Emax.
- Study target: Human TREM2 (Homo sapiens, UniProt Q9NZC2)
- Construct: expressed in transfected cells
- Sequence (Q9NZC2 19-230): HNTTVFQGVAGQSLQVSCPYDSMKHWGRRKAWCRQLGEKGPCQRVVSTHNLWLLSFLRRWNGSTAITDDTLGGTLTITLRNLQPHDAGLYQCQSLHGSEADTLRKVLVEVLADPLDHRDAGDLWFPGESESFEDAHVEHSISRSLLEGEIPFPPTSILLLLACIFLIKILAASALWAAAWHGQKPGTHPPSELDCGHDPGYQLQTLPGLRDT
- Sequence (O43914 22-113 partner): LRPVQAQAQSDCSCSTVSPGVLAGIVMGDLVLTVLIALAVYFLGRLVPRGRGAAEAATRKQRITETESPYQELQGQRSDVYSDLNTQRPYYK
- Protocol: Human TREM2 activity: cellular phosphorylation of Syk (AlphaLISA SureFire Ultra p-SYK) in HEK293/DAP12+TREM2 stable cell line
- Format: cell-based
- Reported conditions: HEK293; maximal response relative to reference agonist example 1B (remaining examples); read-out: Emax

A selection of reference data follows.
[[record]]
molecule = "Cc1nc2c(-c3ccc(C(F)(F)F)cc3F)nc(N3CCO[C@@H](c4cnn(C5CC5)c4)C3)cc2c(=O)n1C (single isomer, unassigned) [Example 132B]"
value = "< 75%"

[[record]]
molecule = "Cc1cc([C@@H]2CN(c3cc4c(=O)n(C)c(C)nc4c(-c4ccc(Cl)cc4F)n3)CCO2)ccn1 (single isomer, unassigned) [Example 135A]"
value = "75 to 110%"

[[record]]
molecule = "Cc1cc([C@H]2CN(c3cc4c(=O)n(C)c(C)nc4c(-c4ccc(C(F)F)nc4)n3)CC(F)(F)O2)ccn1 (single isomer, unassigned) [Example 181B]"
value = "75 to 110%"


INPUT: Which value of Emax has been reported for Cn1c(C(F)(F)F)nc2c(-c3ccc(F)cc3F)nc([C@H]3CCO[C@@H](c4cnn(C5CC5)c4)C3)nc2c1=O (single isomer, unassigned) [Example 196B] in the records?
OUTPUT: < 75%

INPUT: And Cc1nc2c(-c3ccc(Cl)cc3F)cc([C@H]3CCO[C@@H](c4cnn(C5CC5)c4)C3)cc2c(=O)n1C (single isomer, unassigned) [Example 119B] ?
OUTPUT: 75 to 110%

INPUT: And Cc1nc2c(-c3ccc(C(F)(F)F)cc3F)nc(N3C[C@@H](c4cnn(C)c4)OC4(CC4)C3)cc2c(=O)n1C (single isomer, unassigned) [Example 145A] ?
OUTPUT: 75 to 110%
